- protocol: protein stability index of a GFP-peptide fusion (GPS, HEK-293T) (PSI 1-6); higher = more stable;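 note: 24-mer peptide tiles fused after GFP, lentivirally expressed, FACS-sorted into six equal bins by GFP/DsRed ratio, decoded by Illumina sequencing, PSI is the read-weighted mean bin number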
- test_parameters: treatment: MLN4924 1 uM, 8 h; c terminus: a fixed tail appended
Entry flag: True if protein stability index reaches 4; False if it does not.

# count of solved cases: 2
In [3]: df
Out[3]:
                    monomer_sequence  discrete_label
0  PREALSRLQELCHGWLRPEMRTKE [ZNF263]           False
1   ARYAQQKHRIRRVLIVDWDVHHGQ [HDAC6]           False

Could you tell me if the measured protein stability index of TIKPRRVEPVCSGLQAQILHCYRD [CHCHD6] reaches 4 or more?
False

Quick check, protein stability index >= 4? TANCEACTLGICGQGLKSYMTKPS [RTP4]
False

Given the entry LLEQSLEEFAQAESKDQGKTLALA [ALDH8A1] , answer whether its protein stability index meets or surpasses 4.
True

Determine whether measured protein stability index meets or exceeds 4 for PWAVDPAFAERYAPDKTSTVLTRH [PDLIM7]
False
